The following compounds are shown together with reported IC50 values.
Test system: human melanoma A375 and SK-Mel-28 cells
Assay explanation: MTT cytotoxicity in human melanoma A375 and SK-Mel-28 cells (Table 1)
Type: cell-based
Protocol conditions: Homo sapiens, 72 h; read-out: IC50 (50% inhibition of cell survival), MTT assay

Known IC50 results, listed for orientation:
# Compound, Metric, Reported value
measured = [
    ("NCCCCCCCCCCCCNC(=O)/C=C/c1cccc(O)c1", "IC50", "> 25 µM"),
    ("O=C(/C=C/c1cccc(O)c1)NCCCCCCCCCCCCNC(=O)/C=C/c1cccc(O)c1", "IC50", "> 10 µM"),
    ("NCCCCCCCCCCCCNC(=O)C=Cc1ccccc1 [Compound 10, N-(12-Aminododecyl)cinnamamide]", "IC50", "> 25 µM"),
]

QUERY: Recall the reported IC50 of "O=C(/C=C/c1ccc(O)cc1)NCCCCCCNC(=O)/C=C/c1ccc(O)cc1" on human melanoma A375 and SK-Mel-28 cells and write it down.
RESULT: > 50 µM

QUERY: Please tell me the measured IC50 for "O=C(/C=C/c1ccccc1)NCCCCCCCCCCCCNC(=O)/C=C/c1cccc(O)c1" ; system: human melanoma A375 and SK-Mel-28 cells.
RESULT: > 10 µM

QUERY: // output IC50; input "O=C(/C=C/c1ccccc1)NCCCCCCNC(=O)/C=C/c1ccccc1" ; system human melanoma A375 and SK-Mel-28 cells
RESULT: > 10 µM

* * *

Test system: Hermes 1 melanoblast cells
Protocol conditions: read-out: IC50, cell viability; Hermes 1 melanoblast cells, MTT, 72 h
Metric: pIC50
By convention, pIC50 is the negative base-10 log of a molar concentration.

QUERY: Supply reported pIC50 belonging to this compound: O=C(C=Cc1ccccc1)NCCCCCCCCCCCCNC(=O)/C=C/c1ccc(O)cc1 [Compound 11]
RESULT: 6.56

* * *

Tested on: human melanoma A375 and SK-Mel-28 cells
Assay explanation: MTT cytotoxicity in human melanoma A375 and SK-Mel-28 cells (Table 1)
Type: cell-based
Protocol conditions: 72 h; human melanoma A375 and SK-Mel-28 cells (compound 11: average of the two lines); read-out: IC50 (50% inhibition of cell survival), MTT assay
Metric: pIC50
// pIC50 is dimensionless: -log10 of concentration (M)

QUERY: Could you please provide reported pIC50 for O=C(C=Cc1ccccc1)NCCCCCCCCCCCCNC(=O)/C=C/c1ccc(O)cc1 [Compound 11] ? Thanks!
RESULT: 7.10

* * *

Tested on: Sk-Mel-28 melanoma cells
Protocol conditions: read-out: IC50, cell viability; Sk-Mel-28 cells, MTT, 72 h
Metric: pIC50
Please report pIC50 as the negative decimal logarithm of the molar concentration, giving only the number.

QUERY: Give the value of pIC50 reported for the following: "O=C(C=Cc1ccccc1)NCCCCCCCCCCCCNC(=O)/C=C/c1ccc(O)cc1"
RESULT: 7.15
